Reference source for all entries: patent US20240247080A1

target: human GLP-1 receptor (human, UniProt P43220 24-463); assay: cell-based or functional assay
Starred links: 1 amine or outer side, 2 acyl side, 3 side chain; linkers in the order of their positions; H or OH if unused. Non-standard residues stand in square brackets, D forms with d. Groups on a side chain read outwards from the residue. No end group written: not given here. *: point of attachment. C20 diacid = O=C(O)CCCCCCCCCCCCCCCCCCC(=O)*; C18 diacid = O=C(O)CCCCCCCCCCCCCCCCC(=O)*; γGlu = O=C(O)[C@H](CCC(=O)[*:2])N[*:1]; εLys = N[C@@H](CCCCN[*:1])C(=O)[*:2]; AEEA = NCCOCCOCC(=O)O; Aib = CC(C)(N)C(=O)O
value.type: EC50 hGLP1R 100% hP (CreLuc) (nM)
Write the number in nM without appending the unit.

Examples with answers:
Y[Aib]EGTFTSDYSI[Aib]LEKQAQ[Aib]AFVEWLIK([εLys-γGlu-Glu-γGlu-γGlu-γGlu-C20 diacid])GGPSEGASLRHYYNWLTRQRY-NH2 (also: TFA salt) [Compound 290] | 2.87
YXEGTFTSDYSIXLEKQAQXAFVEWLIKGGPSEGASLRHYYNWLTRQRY (Aib at 2, 13, 20; K28 side chain acylated with C18DA-gGlu-gGlu-gGlu-gGlu-gGlu; C-terminal amide (NH2)) [Compound 292] | 5.01

Please report EC50 hGLP1R 100% hP (CreLuc) for the following binder: Y[Aib]EGTFTSDYSI[Aib]LEKQAQ[Aib]AFVEWLIK([AEEA-γGlu-γGlu-γGlu-C18 diacid])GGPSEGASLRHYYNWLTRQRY-NH2 (also: TFA salt) [Compound 300] 6.33

Given Y[Aib]EGTFTSDYSI[Aib]LEKQAQ[Aib]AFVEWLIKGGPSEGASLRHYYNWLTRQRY-NH2 (not fully specified (residue 28); also: TFA salt) [Compound 295] , respond with its EC50 hGLP1R 100% hP (CreLuc). 3.53
